Examples of compounds with documented IC50 follow.
# test.system: Human Kv1.5 channels (Homo sapiens)
# Sequence (P22460 whole entry): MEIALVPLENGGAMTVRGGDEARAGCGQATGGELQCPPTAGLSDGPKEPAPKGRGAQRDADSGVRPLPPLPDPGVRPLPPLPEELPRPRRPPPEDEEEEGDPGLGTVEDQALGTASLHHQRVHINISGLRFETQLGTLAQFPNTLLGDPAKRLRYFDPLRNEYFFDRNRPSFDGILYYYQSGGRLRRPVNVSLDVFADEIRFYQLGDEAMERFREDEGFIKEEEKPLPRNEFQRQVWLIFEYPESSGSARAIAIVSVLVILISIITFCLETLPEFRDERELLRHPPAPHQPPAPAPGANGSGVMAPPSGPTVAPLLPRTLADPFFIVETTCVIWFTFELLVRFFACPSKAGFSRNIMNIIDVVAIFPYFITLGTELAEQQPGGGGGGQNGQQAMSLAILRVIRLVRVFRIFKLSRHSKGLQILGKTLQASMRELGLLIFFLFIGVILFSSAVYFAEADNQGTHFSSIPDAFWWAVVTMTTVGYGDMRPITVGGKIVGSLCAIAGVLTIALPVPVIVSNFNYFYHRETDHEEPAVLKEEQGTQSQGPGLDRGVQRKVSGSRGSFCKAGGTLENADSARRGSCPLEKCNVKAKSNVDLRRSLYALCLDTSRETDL
# test.name: Activity on the Kv1.5 channel: two-microelectrode voltage clamp on Xenopus oocytes expressing Kv1.5
# setup.conditions: human Kv1.5 expressed in Xenopus oocytes, room temperature, Hill equation; read-out: Kv1.5 IC-50
property.label: IC50

| compound | result |
| --- | --- |
| O=C1CCCN1[C@H](c1ccc(F)cc1)[C@@H](OCC1CC1)c1cccc2cccnc12 (racemic) | 1.1 µM |
| O=C1CCCN1[C@@H](c1ccccc1)[C@H](OCCCC(F)(F)F)c1ccc(F)cc1 (racemic) | 0.9 µM |
| COc1ccc(CO[C@H](c2ccc(F)cc2)[C@H](c2cccc3cccnc23)N2CCCC2=O)cc1 (racemic) | 5.5 µM |

###

# test.system: Human Kv1.5 channels (Homo sapiens)
# test.name: Activity on the Kv1.5 channel: two-microelectrode voltage clamp on Xenopus oocytes expressing Kv1.5
# setup.conditions: human Kv1.5 expressed in Xenopus oocytes, room temperature, Hill equation; read-out: Kv1.5 IC-50
Examples of molecules with documented IC50 follow.

| molecule | IC50 [nM] |
| --- | --- |
| O=C1CCCCN1[C@@H](c1ccc(F)cc1)[C@H](OCCCC(F)(F)F)c1cccnc1 (racemic) [Example 118] | 800 |
| CCCO[C@H](c1ccc(F)cc1)[C@H](c1ccccc1)N1CCCC1=O (racemic) [Example 20] | 300 |
| O=C1CCCN1[C@H](c1ccccn1)[C@H](OCC1CC1)c1ccccc1 (racemic) [Example 63] | 1700 |
| CCCO[C@@H](c1ccc(F)cc1)[C@H](c1ccccc1)N1CCCC1=O (racemic) [Example 25] | 450 |
| CCCO[C@H](c1ccncc1)[C@H](c1ccccc1)N1CCCC1=O (racemic) [Example 97] | 5400 |
| N#Cc1ccc(O[C@@H](c2cccc3cccnc23)[C@H](c2ccc(F)cc2)N2CCCC2=O)cc1 (racemic) [Example 10] | 4400 |
| O=C1CCCN1[C@@H](c1ccccn1)[C@H](OCCF)c1ccccc1 (racemic) [Example 104] | 6700 |
| C#CCO[C@H](c1ccc(F)c(F)c1)[C@H](c1ccc(F)cc1)N1CCCC1=O (racemic) [Example 38] | 700 |
| O=C1CCCN1[C@@H](c1cccc2cccnc12)[C@H](OCC1CC1)c1cccnc1 (racemic) [Example 119] | 800 |
| N#Cc1ccc(O[C@H](c2cc(F)cc(F)c2)[C@H](c2ccc(F)cc2)N2CCCC2=O)cc1 (racemic) [Example 106] | 8300 |
| CCCO[C@H](c1ccccc1)[C@@H](c1ccccn1)N1CCCC1=O (racemic) [Example 64] | 1830 |
| CO[C@H](C1CCCCC1)[C@H](c1ccc(F)cc1)N1CCCC1=O (racemic) [Example 78] | 3300 |
| O=C1CCCN1[C@@H](c1ccccc1)[C@H](OCC1CC1)c1ccncc1 (racemic) [Example 91] | 4000 |
| CCCCO[C@H](c1ccc(Cl)cc1)[C@H](c1ccccc1)N1CCCC1=O (racemic) [Example 56] | 800 |

###

# test.system: UniProt:P22460
# test.name: Activity on the Kv1.5 channel: two-microelectrode voltage clamp on Xenopus oocytes expressing Kv1.5
# setup.conditions: human Kv1.5 expressed in Xenopus oocytes, room temperature, Hill equation; read-out: Kv1.5 IC-50

| compound | test.system | unit.info | IC50 |
| --- | --- | --- | --- |
| CO[C@H](c1ccc(Cl)cc1)[C@H](c1ccccc1)N1CCCCC1=O (racemic) | UniProt:P22460 | nM | 1200 |
| O=C1CCCN1[C@@H](c1ccccc1)[C@H](OCCCC(F)(F)F)c1ccc(Cl)cc1 (racemic) | UniProt:P22460 | nM | 500 |
| CC#CCO[C@H](c1ccc(F)c(F)c1)[C@H](c1ccc(F)cc1)N1CCCC1=O (racemic) | UniProt:P22460 | nM | 2400 |
| CO[C@H](c1ccc(F)cc1)[C@H](c1ccccc1)N1CCCC1=O (racemic) | UniProt:P22460 | nM | 2700 |

###

# test.system: Human Kv1.5 channels (Homo sapiens)
# Construct: expressed in transfected cells; host or cells: Xenopus laevis oocytes injected with RNA synthesized in vitro
# test.name: Activity on the Kv1.5 channel: two-microelectrode voltage clamp on Xenopus oocytes expressing Kv1.5
# Type: cell-based
# setup.conditions: human Kv1.5 expressed in Xenopus oocytes, room temperature, Hill equation; read-out: Kv1.5 IC-50

| compound | IC50 / µM |
| --- | --- |
| CCCO[C@H](c1ccc(C#N)cc1)[C@H](c1ccc(F)cc1)N1CCCC1=O (racemic) | 0.6 |
| N#Cc1ccc(O[C@H](c2ccccc2)[C@H](c2ccccn2)N2CCCC2=O)cc1 (racemic) | 5.1 |
| O=C1CCCN1[C@@H](c1ccccc1)[C@@H](OCc1ccccc1)c1ccc(F)cc1 (racemic) | 1.8 |
| COc1ccc(CO[C@H](c2cccnc2)[C@H](c2ccc(F)cc2)N2CCCC2=O)cc1 (racemic) | 2.9 |
| CCCO[C@H](c1ccccc1)[C@H](c1ccccn1)N1CCCC1=O (racemic) | 1.6 |
| COc1ccc([C@@H](Oc2ccc(C#N)cc2)[C@H](c2ccc(F)cc2)N2CCCC2=O)cc1 (racemic) | 1.9 |
| O=C1CCCN1C(c1ccc(F)cc1)C(OCCCC(F)(F)F)c1cccc2cccnc12 (centres unmarked) | 8.8 |
| CC1CCC(=O)N1[C@@H](c1ccc(F)cc1)[C@H](OCC1CC1)c1ccc(F)c(F)c1 (mixture of isomers) | 0.5 |
| N#Cc1ccc(O[C@@H](c2cccc3ccccc23)[C@H](c2ccc(F)cc2)N2CCCC2=O)cc1 (racemic) | 3.5 |
| CCCO[C@H](c1ccccc1)[C@@H](c1ccccc1)N1CCCC1=O (racemic) | 0.3 |
| CO[C@H](c1ccc(F)c(F)c1)[C@H](c1ccc(F)cc1)N1CCCC1=O (racemic) | 4.2 |
| CO[C@H](c1ccc(Cl)cc1)[C@H](c1ccccc1)N1CCCC1=O (racemic) | 1.5 |
| O=C1CCCN1[C@@H](c1ccc(F)cc1)[C@@H](OCC1CC1)c1ccnc2ccccc12 (racemic) | 2.4 |
| CO[C@@H](c1ccc(F)cc1)[C@H](c1ccccc1)N1CCCC1=O (racemic) | 4 |
| O=C1CCCN1[C@@H](c1cccnc1)[C@H](OCc1ccc(Cl)cc1)c1ccc(F)c(F)c1 (racemic) | 5.4 |
| CO[C@H](c1ccc(F)c(F)c1)[C@H](c1ccc(F)cc1)N1CCCCC1=O (racemic) | 6.3 |
| CC1CCC(=O)N1[C@@H](c1ccc(F)cc1)[C@H](Oc1ccc(C#N)cc1)c1ccc(F)c(F)c1 (mixture of isomers) | 4.1 |
| CO[C@@H](c1ccccc1)[C@H](c1ccccc1)N1CCCC1=O (racemic) | 3.7 |
| O=C1CCCN1[C@@H](c1ccc(F)cc1)[C@H](OCC1CC1)c1cccnc1 (racemic) | 1 |
